Listing: half-life at 1 µM of selected compounds
testDescription: Half life in mouse plasma at 1 uM by LC-MS/MS analysis
Assay type: ADME
observedProperty: half-life at 1 µM (h)

• O=C(O)CCc1ccc(OCc2nnc(C(=O)Nc3ccccc3F)s2)cc1 = 0.34
• O=C(O)CCc1ccc(OCc2nnc(C(=O)Nc3cccc(Cl)c3)s2)cc1 = 1.93

====

targetUnderTest: UniProt O14842
Sequence (O14842 whole entry): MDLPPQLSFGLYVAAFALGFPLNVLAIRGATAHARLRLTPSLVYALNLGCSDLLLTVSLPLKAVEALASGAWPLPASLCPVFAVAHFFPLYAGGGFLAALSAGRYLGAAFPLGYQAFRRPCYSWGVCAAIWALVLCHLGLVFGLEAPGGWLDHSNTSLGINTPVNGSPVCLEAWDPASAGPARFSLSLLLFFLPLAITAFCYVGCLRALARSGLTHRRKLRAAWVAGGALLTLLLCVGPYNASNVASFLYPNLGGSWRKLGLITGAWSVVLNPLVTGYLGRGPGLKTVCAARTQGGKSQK
testDescription: Agonist activity at human GPR40 expressed in CHO cells by calcium influx assay
// reported log10 EC50 for each item listed
observedProperty: log10 EC50 (log10 of the value in nM)

* COc1cccc(NC(=O)c2nnc(COc3ccc(CCC(=O)O)cc3)s2)c1 | 3.67
* O=C(O)CCc1nnc(C(=O)Nc2cccc(-c3ccco3)c2)s1 | 3.21
* Cc1cccc(NC(=O)c2nnc(COc3ccc(CCC(=O)O)cc3)s2)c1 | 3.25
* O=C(O)CCc1ccc(OCc2nnc(C(=O)Nc3cccc(F)c3)s2)cc1 | 3.08
* O=C(O)CCc1ccc(OCc2nnc(C(=O)Nc3ccc(F)c(F)c3)s2)cc1 | 2.76
* O=C(O)CCc1nnc(C(=O)Nc2cccc(-c3cccc(Cl)c3)c2)s1 | 3.23
* O=C(O)CCc1ccc(OCc2nnc(C(=O)Nc3ccccc3)s2)cc1 | 3.03
* Cc1cccc(-c2cccc(NC(=O)c3nnc(CCC(=O)O)s3)c2)c1 | 2.88
* O=C(O)CCc1nnc(C(=O)Nc2ccc(OCc3ccccc3)cc2)s1 | 4.25
* O=C(O)CCc1ccc(OCc2nnc(C(=O)Nc3ccc(F)cc3)s2)cc1 | 3.82
